Origin of values: ChEMBL document CHEMBL5247586

Examples of compounds with documented viability at 24 h, 40 µM follow.
Measurement Description: Cytotoxicity against mouse RAW264.7 cells assessed as cell viability at 40 uM measured after 24 hrs by MTT assay relative to control
Format: toxicity, cell-based
Measurement Parameters: read-out: Activity
Respond numerically; units are % and should not be typed.

Previously resolved entries follow.
CON(C)C(=O)CCSSCCC(=O)O[C@@H]1CC[C@@]2(C)[C@@H](CC[C@@]3(C)[C@H]2[C@H](O)C[C@H]2/C(=C(\CCC=C(C)C)C(=O)OCc4ccccc4)[C@@H](OC(C)=O)C[C@@]23C)[C@@H]1C = 90.2
CC(=O)O[C@H]1C[C@@]2(C)[C@@H](C[C@@H](O)[C@H]3[C@@]4(C)CC[C@@H](OC(=O)CCSSCCC(=O)NOCc5ccccc5)[C@@H](C)[C@@H]4CC[C@@]32C)/C1=C(\CCC=C(C)C)C(=O)OCc1ccccc1 = 98.4
C=CCONC(=O)CCSSCCC(=O)O[C@@H]1CC[C@@]2(C)[C@@H](CC[C@@]3(C)[C@H]2[C@H](O)C[C@H]2/C(=C(\CCC=C(C)C)C(=O)OCc4ccccc4)[C@@H](OC(C)=O)C[C@@]23C)[C@@H]1C = 91.1
CC(=O)O[C@H]1C[C@@]2(C)[C@@H](C[C@@H](O)[C@H]3[C@@]4(C)CC[C@@H](O)[C@@H](C)[C@@H]4CC[C@@]32C)/C1=C(\CCC=C(C)C)C(=O)NOC1CCCCO1 (stereo not given in full) = 2.83

(Q) Give its viability at 24 h, 40 µM value. Item: CC(=O)O[C@H]1C[C@@]2(C)[C@@H](C[C@@H](O)[C@H]3[C@@]4(C)CC[C@@H](O)[C@@H](C)[C@@H]4CC[C@@]32C)/C1=C(\CCC=C(C)C)C(=O)NOC(C)(C)C
(A) 84.3

###

System: RAW264.7
Measurement Description: Anti inflammatory activity in LPS-induced mouse RAW264.7 cells assessed as inhibition of NO production preincubated with compound for 2 hrs followed by LPS stimulation and measured after 24 hrs by griess reagent based assay
Type: functional, cell-based
Examples of compounds with documented pIC50 follow.
Please treat pIC50 as minus the base-10 logarithm of the molar concentration.

Previously resolved entries follow.
CON(C)C(=O)CCSSCCC(=O)O[C@@H]1CC[C@@]2(C)[C@@H](CC[C@@]3(C)[C@H]2[C@H](O)C[C@H]2/C(=C(\CCC=C(C)C)C(=O)OCc4ccccc4)[C@@H](OC(C)=O)C[C@@]23C)[C@@H]1C = 5.60
O=C(Nc1ccc(I)cc1)c1ccc([N+](=O)[O-])o1 = 5.94

(Q) Give its pIC50 value. Item: CC(=O)O[C@H]1C[C@@]2(C)[C@@H](C[C@@H](O)[C@H]3[C@@]4(C)CC[C@@H](OC(=O)CCSSCCC(=O)NOC(=O)c5ccc([N+](=O)[O-])cc5)[C@@H](C)[C@@H]4CC[C@@]32C)/C1=C(\CCC=C(C)C)C(=O)OCc1ccccc1
(A) 5.00

(Q) Give its pIC50 value. Item: C=CCONC(=O)CCSSCCC(=O)O[C@@H]1CC[C@@]2(C)[C@@H](CC[C@@]3(C)[C@H]2[C@H](O)C[C@H]2/C(=C(\CCC=C(C)C)C(=O)OCc4ccccc4)[C@@H](OC(C)=O)C[C@@]23C)[C@@H]1C
(A) 5.94
